Could you please report measured IC50 for the items listed next?
Molecular target: Tyrosine-protein kinase BTK (Homo sapiens)
Sequence (Q06187 whole entry): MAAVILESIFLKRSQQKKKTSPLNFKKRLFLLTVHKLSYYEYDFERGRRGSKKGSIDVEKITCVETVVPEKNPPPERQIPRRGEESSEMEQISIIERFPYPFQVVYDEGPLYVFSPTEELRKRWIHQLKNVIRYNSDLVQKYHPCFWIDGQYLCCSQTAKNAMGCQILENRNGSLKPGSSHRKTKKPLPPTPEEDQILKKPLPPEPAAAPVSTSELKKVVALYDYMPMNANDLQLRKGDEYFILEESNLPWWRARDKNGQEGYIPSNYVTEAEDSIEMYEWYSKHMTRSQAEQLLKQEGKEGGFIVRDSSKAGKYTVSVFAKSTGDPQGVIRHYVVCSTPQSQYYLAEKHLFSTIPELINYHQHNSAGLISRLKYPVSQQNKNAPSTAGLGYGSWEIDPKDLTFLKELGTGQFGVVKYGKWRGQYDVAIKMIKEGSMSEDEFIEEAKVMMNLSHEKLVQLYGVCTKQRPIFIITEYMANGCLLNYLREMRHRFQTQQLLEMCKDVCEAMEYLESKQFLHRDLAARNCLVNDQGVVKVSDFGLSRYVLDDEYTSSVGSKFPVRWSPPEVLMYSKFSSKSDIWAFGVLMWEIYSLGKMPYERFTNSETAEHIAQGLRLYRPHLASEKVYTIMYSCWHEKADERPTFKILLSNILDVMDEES
Experiment: Inhibition of Btk

Please review the following examples before continuing.
Cc1ccc2[nH]ncc2c1Nc1ccnc(Nc2cccc(C(N)=O)c2)n1; 0.097 µM
Cc1ccc2[nH]ncc2c1Nc1ccnc(Nc2cccc(S(N)(=O)=O)c2)n1; 0.069 µM

# input for lookup
Problem: Form: Entry = Cc1ccc(O)cc1Nc1ccnc(Nc2cccc(C(N)=O)c2)n1 | System = Tyrosine-protein kinase BTK (Homo sapiens) | IC50 = ____
Result: 0.009 µM

---

Experiment: Oral bioavailability in BALB/c mouse at 10 mg/kg, po
Assay type: ADME, organism-based
Conditions: in vivo
MEASURED QUANTITY: bioavailability

Problem: What value of bioavailability has been reported for the following compound? Cc1ccc(O)cc1Nc1ccnc(Nc2cccc(S(N)(=O)=O)c2)n1
Result: < 1%

---

This section lists pIC50 readings for Proto-oncogene tyrosine-protein kinase LCK (Mus musculus).
Answers are plain numbers, as −log10 of the molar value.

Parameter requested: pIC50. Apply to each item below.
1. NC(=O)c1cccc(Nc2nccc(Nc3cccc4cn[nH]c34)n2)c1
2. NC(=O)c1cccc(Nc2nccc(Nc3ccc4[nH]ncc4c3)n2)c1
3. NC(=O)c1cccc(Nc2nccc(Nc3cccc4nn[nH]c34)n2)c1
4. COc1cccc(Nc2ccnc(Nc3cccc(C(N)=O)c3)n2)c1
5. Cn1cnc2cc(Nc3ccnc(Nc4cccc(C(N)=O)c4)n3)ccc21
6. Cc1ccc2c(cnn2C)c1Nc1ccnc(Nc2cccc(C(N)=O)c2)n1
7. Cc1ccc(NS(C)(=O)=O)cc1Nc1ccnc(Nc2cccc(C(N)=O)c2)n1
8. Cc1ccc(F)cc1Nc1ccnc(Nc2cccc(C(N)=O)c2)n1

Result:
1: 5.85; 2: 5.52; 3: 6.31; 4: 5.57; 5: 5.74; 6: 5.55; 7: 5.11; 8: 6.57

---

Target: Tyrosine-protein kinase Lck (Homo sapiens, UniProt P06239)
Sequence (P06239 whole entry): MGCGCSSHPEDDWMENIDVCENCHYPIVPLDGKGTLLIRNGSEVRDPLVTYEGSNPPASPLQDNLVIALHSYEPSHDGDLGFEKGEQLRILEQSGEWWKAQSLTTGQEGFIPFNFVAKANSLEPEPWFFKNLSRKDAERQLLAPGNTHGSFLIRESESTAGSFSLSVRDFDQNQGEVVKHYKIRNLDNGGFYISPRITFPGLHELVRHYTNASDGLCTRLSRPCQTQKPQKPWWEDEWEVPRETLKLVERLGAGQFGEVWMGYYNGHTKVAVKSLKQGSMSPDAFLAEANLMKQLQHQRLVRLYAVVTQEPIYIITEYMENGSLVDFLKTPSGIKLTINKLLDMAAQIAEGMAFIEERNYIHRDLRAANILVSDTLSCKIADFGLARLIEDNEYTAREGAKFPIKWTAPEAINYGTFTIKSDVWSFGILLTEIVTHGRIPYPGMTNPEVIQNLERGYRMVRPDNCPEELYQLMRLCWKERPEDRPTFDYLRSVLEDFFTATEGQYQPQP
MEASURED QUANTITY: IC50 (nM)
Give bare numbers, in nM.

Problem: Form: Entry = Cc1ccc(O)cc1Nc1ccnc(Nc2cccc(C(N)=O)c2)n1 | System = Tyrosine-protein kinase Lck (Homo sapiens, UniProt P06239) | IC50 = ____
Result: 14

---

Test: Volume of distribution at steady state in BALB/c mouse at 1 mg/kg, iv
Format: ADME, organism-based
Design: dose 1 mg/kg, route intravenous
Settings: in vivo, read-out: Vdss
MEASURED QUANTITY: Vd

Problem: What value of Vd has been reported for the following molecule? Cc1ccc2[nH]ncc2c1Nc1ccnc(Nc2cccc(S(N)(=O)=O)c2)n1
Result: 0.7 L/kg

---

Target: Tyrosine-protein kinase Lyn (Homo sapiens, UniProt P07948)
Sequence (P07948 whole entry): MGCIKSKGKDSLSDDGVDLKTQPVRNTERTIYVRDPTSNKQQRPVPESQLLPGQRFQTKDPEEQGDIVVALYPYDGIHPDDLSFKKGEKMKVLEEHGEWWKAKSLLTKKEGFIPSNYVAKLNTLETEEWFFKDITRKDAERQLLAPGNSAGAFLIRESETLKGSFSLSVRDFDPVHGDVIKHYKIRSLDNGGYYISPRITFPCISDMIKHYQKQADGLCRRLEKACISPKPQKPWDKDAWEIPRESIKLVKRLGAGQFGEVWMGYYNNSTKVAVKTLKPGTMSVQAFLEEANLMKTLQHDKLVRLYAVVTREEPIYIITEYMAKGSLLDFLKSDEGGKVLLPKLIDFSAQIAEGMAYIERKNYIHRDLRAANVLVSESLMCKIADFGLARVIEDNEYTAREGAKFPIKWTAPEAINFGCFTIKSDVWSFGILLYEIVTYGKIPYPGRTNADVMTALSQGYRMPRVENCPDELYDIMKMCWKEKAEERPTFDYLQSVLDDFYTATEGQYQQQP
Could you please report measured IC50 for the items listed next?
One number for each entry, in nM.

Please review the following examples before continuing.
Cc1ccc(O)cc1Nc1ccnc(Nc2cccc(S(N)(=O)=O)c2)n1; 1
Cc1ccc2[nH]ncc2c1Nc1ccnc(Nc2cccc(C(N)=O)c2)n1; 40

# input for lookup
Problem: What value of IC50 has been reported for the following compound? Cc1ccc2[nH]ncc2c1Nc1ccnc(Nc2cccc(S(N)(=O)=O)c2)n1
Result: 430

---

Experiment: AUC (0 to t) in BALB/c mouse at 10 mg/kg, po
Assay type: ADME, organism-based
Parameters: dose 10 mg/kg, route oral
Conditions: plasma
MEASURED QUANTITY: AUC(0-t) (ng·h/mL)
Numbers only, in ng·h/mL.

Problem: What value of AUC(0-t) has been reported for the following molecule? Cc1ccc(O)cc1Nc1ccnc(Nc2cccc(S(N)(=O)=O)c2)n1
Result: 2

---

This section lists pIC50 readings for Tyrosine-protein kinase SYK (Homo sapiens, UniProt P43405).
Numbers only, as −log10 of the molar value.

Cc1ccc(O)cc1Nc1ccnc(Nc2cccc(S(N)(=O)=O)c2)n1; 8.40

Problem: Form: Entry = Cc1ccc2[nH]ncc2c1Nc1ccnc(Nc2cccc(C(N)=O)c2)n1 | System = Tyrosine-protein kinase SYK (Homo sapiens, UniProt P43405) | pIC50 = ____
Result: 6.66

---

Assay: Half life in BALB/c mouse at 2.5 mg/kg, iv
Format: ADME, organism-based
Parameters: dose 2.5 mg/kg, route intravenous
Conditions: in vivo
MEASURED QUANTITY: half-life

Problem: What value of half-life has been reported for the following compound? Cc1ccc(O)cc1Nc1ccnc(Nc2cccc(S(N)(=O)=O)c2)n1
Result: 7.2 min

---

Experiment: Plasma clearance in BALB/c mouse at 2.5 mg/kg, iv
Format: ADME, organism-based
Set-up: dose 2.5 mg/kg, route intravenous
MEASURED QUANTITY: clearance
Please report the result as a number followed by the unit.

Problem: What value of clearance has been reported for the following molecule? Cc1ccc(O)cc1Nc1ccnc(Nc2cccc(S(N)(=O)=O)c2)n1
Result: 65.5 mL/min/kg

---

This section lists IC50 readings for Tyrosine-protein kinase TXK (Homo sapiens, UniProt P42681).
Numbers only, in nM.

Please review the following examples before continuing.
Cc1ccc2[nH]ncc2c1Nc1ccnc(Nc2cccc(C(N)=O)c2)n1; 28
Cc1ccc(O)cc1Nc1ccnc(Nc2cccc(S(N)(=O)=O)c2)n1; 0.4

# input for lookup
Problem: What value of IC50 has been reported for the following molecule? Cc1ccc(O)cc1Nc1ccnc(Nc2cccc(C(N)=O)c2)n1
Result: 2

---

Could you please report measured IC50 for the items listed next?
Molecular target: Proto-oncogene tyrosine-protein kinase LCK (Mus musculus, UniProt P06240)
Sequence (P06240 whole entry): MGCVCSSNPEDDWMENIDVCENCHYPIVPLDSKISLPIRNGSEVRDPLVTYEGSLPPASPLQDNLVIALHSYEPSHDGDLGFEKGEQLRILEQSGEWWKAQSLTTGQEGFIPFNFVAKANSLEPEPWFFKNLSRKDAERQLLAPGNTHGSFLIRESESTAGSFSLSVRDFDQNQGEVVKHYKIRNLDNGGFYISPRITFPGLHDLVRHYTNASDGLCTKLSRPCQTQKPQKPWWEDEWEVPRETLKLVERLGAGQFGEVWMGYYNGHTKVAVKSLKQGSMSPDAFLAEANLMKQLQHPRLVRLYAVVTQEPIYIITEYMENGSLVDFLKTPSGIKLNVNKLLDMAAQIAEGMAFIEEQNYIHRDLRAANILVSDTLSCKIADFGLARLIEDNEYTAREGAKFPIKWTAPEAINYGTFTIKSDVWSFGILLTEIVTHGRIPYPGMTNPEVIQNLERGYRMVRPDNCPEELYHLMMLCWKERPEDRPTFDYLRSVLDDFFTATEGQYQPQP

Please review the following examples before continuing.
COc1ccc(C)c(Nc2ccnc(Nc3cccc(C(N)=O)c3)n2)c1; 86 nM
Cc1nc2c(Nc3ccnc(Nc4cccc(C(N)=O)c4)n3)cccc2[nH]1; 5600 nM

Parameter requested: IC50. Apply to each item below.
1. NC(=O)c1cccc(Nc2nccc(Nc3cccc4[nH]ncc34)n2)c1 [GW782612X]
2. Cc1cc(Nc2ccnc(Nc3cccc(C(N)=O)c3)n2)c2cn[nH]c2c1
3. NC(=O)c1cccc(Nc2nccc(Nc3cc(O)ccc3Br)n2)c1
4. CC(C)c1ccc(O)cc1Nc1ccnc(Nc2cccc(C(N)=O)c2)n1
5. Cc1ccc(O)cc1Nc1ccnc(Nc2cccc(S(N)(=O)=O)c2)n1
6. Cc1ccc2[nH]ncc2c1Nc1ccnc(Nc2cccc(C(N)=O)c2)n1
7. Cc1ccc(Nc2ccnc(Nc3cccc(C(N)=O)c3)n2)c2cn[nH]c12

Result:
1: 100 nM; 2: 520 nM; 3: 41 nM; 4: 880 nM; 5: 8.5 nM; 6: 12 nM; 7: 55 nM

---

This section lists IC50 readings for Proto-oncogene tyrosine-protein kinase LCK (Mus musculus, UniProt P06240).
One number for each entry, in nM.

NC(=O)c1cccc(Nc2nccc(Nc3cccc(O)c3)n2)c1; 130

Parameter requested: IC50. Apply to each item below.
1. NC(=O)c1cccc(Nc2nccc(Nc3ccc(F)cc3F)n2)c1
2. CC(=O)N(C)c1cccc(Nc2ccnc(Nc3cccc(C(N)=O)c3)n2)c1

Result:
1. 1100
2. 1800
